# credit: patent US10450549B2

- system-name: AAD1 (v1) (Sphingobium herbicidovorans)
- Construct: made in house; host or cells: E. coli BL-21 Star (DE3), plasmid pDAB3203
- Sequence (Q8KSC8 whole entry): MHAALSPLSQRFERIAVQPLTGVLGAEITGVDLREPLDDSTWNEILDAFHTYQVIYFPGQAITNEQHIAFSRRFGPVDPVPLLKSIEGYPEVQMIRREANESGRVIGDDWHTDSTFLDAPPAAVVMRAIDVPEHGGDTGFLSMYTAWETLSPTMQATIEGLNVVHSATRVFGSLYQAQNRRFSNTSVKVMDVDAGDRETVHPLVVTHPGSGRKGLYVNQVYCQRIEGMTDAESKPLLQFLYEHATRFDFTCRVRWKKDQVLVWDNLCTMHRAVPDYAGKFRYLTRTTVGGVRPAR
- test-description: Colorimetric phenol detection assay of AAD1 (v1) activity (purified enzyme or E. coli extract)
- Format: biochemical
- condition-info: 0.5 mM substrate; 4 μl extract; 15 min
attribute-measured: activity of AAD1 (v1) E. coli extract on substrate

> print(dat)
                                   compound                              system.name  observed.measurement
1  CC(Oc1ccc(Oc2ccc(Cl)cc2Cl)cc1)C(=O)O (racemic) [(R,S)- diclofop]  AAD1 (v1) (Sphingobium herbicidovorans)               cleaved
2  CC(Oc1ccc(Oc2ncc(C(F)(F)F)cc2Cl)cc1)C(=O)O (stereo not drawn) [Haloxyfop-RS]  AAD1 (v1) (Sphingobium herbicidovorans)               cleaved
